# Assay target: relaxin family peptide receptor 1 (RXFP1) (Homo sapiens)
# Construct: expressed in transfected cells; host or cells: HEK (human embryonic kidney) cells stably expressing RXFP1, with pCRE beta-galactosidase reporter
# Sequence (Q9HBX9 whole entry): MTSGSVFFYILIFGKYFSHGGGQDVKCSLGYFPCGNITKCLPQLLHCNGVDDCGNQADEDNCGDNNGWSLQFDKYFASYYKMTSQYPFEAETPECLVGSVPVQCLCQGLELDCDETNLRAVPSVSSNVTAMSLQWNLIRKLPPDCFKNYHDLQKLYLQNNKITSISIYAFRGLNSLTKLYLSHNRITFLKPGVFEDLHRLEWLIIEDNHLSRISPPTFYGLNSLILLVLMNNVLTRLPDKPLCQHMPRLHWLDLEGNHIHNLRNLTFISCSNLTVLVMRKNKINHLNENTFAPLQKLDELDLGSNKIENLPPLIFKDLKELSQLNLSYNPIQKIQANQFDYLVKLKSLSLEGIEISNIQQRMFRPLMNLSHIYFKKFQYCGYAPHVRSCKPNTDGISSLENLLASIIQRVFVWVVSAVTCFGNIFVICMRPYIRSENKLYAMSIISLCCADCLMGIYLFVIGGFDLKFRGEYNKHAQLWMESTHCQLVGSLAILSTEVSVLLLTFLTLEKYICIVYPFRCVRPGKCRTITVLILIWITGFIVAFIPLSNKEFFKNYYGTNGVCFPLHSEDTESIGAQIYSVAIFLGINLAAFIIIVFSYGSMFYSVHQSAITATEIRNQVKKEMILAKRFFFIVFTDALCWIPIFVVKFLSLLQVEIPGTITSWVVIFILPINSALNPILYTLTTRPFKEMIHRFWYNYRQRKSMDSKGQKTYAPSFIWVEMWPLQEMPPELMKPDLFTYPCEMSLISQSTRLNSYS
# Test summary: HEK-RXFP1 cAMP reporter gene assay
# Type: cell-based
# Settings: cAMP reporter gene (β-galactosidase), HEK-RXFP1 cells, 6 hours incubation
No end group written: not given here.
Parameter measured: EC50 (nM)

> print(dat)
                                 substance  parameter.measured  numeric.readout
1  VIKLSGRELVRAQIAISGMSTWSKRSL-NH2 [B7-33]                EC50             1000
